Where do these numbers come from? They come from PubChem BioAssay (NCI).

Assignment: determine reported growth inhibition for the given compounds.
- test summary: NCI Yeast Anticancer Drug Screen. Data for the mec2-1 strain (AID 157)
- condition info: S. cerevisiae mec2-1 strain, at 50.0 µM, active compounds read high
About 79,000 compounds went through this panel and 15% of them were active in at least one assay; those are over-represented in the sample as a whole.
One number for each entry, in %.

Could you tell me growth inhibition for each of these compounds? They are listed below.
1. CC1(C)CN2C(c3ccccc3)=NN(c3ccccc3)C2(C)C1 (stereo unspecified)
2. O=P(OCCCl)(OCCCl)C(c1ccccc1)(c1ccccc1)c1ccccc1
3. CSc1cc(/C=C/c2ccccc2)ccc1[N+](=O)[O-]

**Result**
[-18.4, 35.7, 0.95]

Could you tell me growth inhibition for each of these compounds? They are listed below.
1. O=C(O)C1CCCN1Cc1cc2ccccc2c2ccccc12 (stereo unspecified)
2. CN(C)/C=C/C(=O)c1ccccc1

**Result**
[-11.1, 30.1]

Could you tell me growth inhibition for each of these compounds? They are listed below.
1. O=[N+]([O-])c1cccc(C2=NON(c3ncccn3)C3N=CC=CN23)c1 (stereo unspecified)
2. CC(=O)c1c[nH]c(=O)c2cc3c(cc12)OCO3

**Result**
[-17.7, -14.1]

Could you tell me growth inhibition for each of these compounds? They are listed below.
1. Cc1c(-c2ccccc2)c(=O)oc2ccc(Cl)cc12
2. O=C(Cn1c(=O)oc2ccc(C(=O)c3ccc(F)cc3)cc21)c1ccc([N+](=O)[O-])cc1
3. c1ccc(CCC2OCC(c3ccccc3)O2)cc1 (stereo unspecified)

**Result**
[-8.5, -36, 18.6]

**Query** Give growth inhibition for O=c1c2ccccc2nc(-c2ccccc2Cl)n1NCC1(O)OCC(O)C(O)C1O (stereo unspecified)
**Result** 5.2

* * *

- test summary: NCI Yeast Anticancer Drug Screen. Data for the rad50 strain (AID 155);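 note: 0% = growth of vehicle-only cultures of the same strain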
- condition info: S. cerevisiae rad50 strain growth inhibition; at 50.0 µM
This is part of a sample that, as a whole, favours compounds with a hit. Of some 79,000 tested, about 15% had one in any assay. Activity calls are given as the source filed them. Rule as the data show it: active = growth inhibition above about 70%; inactive = the rest.
# valid calls are active, inactive; nothing else

**Query** Per the records of this test, what outcome belongs to COc1ccccc1C(=O)C1OC1c1ccc(Cl)cc1Cl (centres undefined) ?
**Result** inactive

**Query** Per the records of this test, what outcome belongs to COc1nc(SC)nc2[nH]ccc12 ?
**Result** inactive

**Query** Per the records of this test, what outcome belongs to Nc1c(Cl)ncnc1Nc1ccc(O)cc1 ?
**Result** inactive

**Query** Per the records of this test, what outcome belongs to O=[N+]([O-])c1ccc(OCCO)c([N+](=O)[O-])c1 ?
**Result** inactive

**Query** Per the records of this test, what outcome belongs to COC(=O)[C@@H]1[C@H]2C[C@@H]3c4[nH]c5ccccc5c4CCN3C[C@@H]2CC[C@@H]1O ?
**Result** inactive

---
**Query** Per the records of this test, what outcome belongs to O=C(O)c1ccccc1C(=O)OC1CC2CCC1C2 (centres undefined) ?
**Result** inactive

**Query** Per the records of this test, what outcome belongs to O=C1C2C(C(=O)N1c1cccc3ccccc13)C1(Cl)C(Cl)=C(Cl)C2(Cl)C1(Cl)Cl (centres undefined) ?
**Result** active

**Query** Per the records of this test, what outcome belongs to C=CCOC(=O)CCCCC(=O)OCC=C ?
**Result** inactive

**Query** Per the records of this test, what outcome belongs to OC(C/C=N/N=C/CC(O)(C(F)(F)Cl)C(F)(F)Cl)(C(F)(F)Cl)C(F)(F)Cl ?
**Result** inactive

**Query** Per the records of this test, what outcome belongs to CN(C)CCCn1ncc(Sc2cc([N+](=O)[O-])ccc2N)c(Cl)c1=O ?
**Result** inactive

**Query** Per the records of this test, what outcome belongs to CS(=O)(=O)ON1C(=O)c2ccccc2C1=O ?
**Result** inactive

**Query** Per the records of this test, what outcome belongs to ClCCCOCc1ccccc1 ?
**Result** inactive

**Query** Per the records of this test, what outcome belongs to COCn1cnc2c(ccn2C2OC(CO)C(O)C2O)c1=O (centres undefined) ?
**Result** inactive

**Query** Per the records of this test, what outcome belongs to COC(=O)NC1(NC(=O)OC)NC(=O)c2cc(OC)c(OC)c(OC)c2N1 ?
**Result** inactive

* * *

- test summary: NCI Yeast Anticancer Drug Screen. Data for the bub3 strain (AID 167)
- condition info: S. cerevisiae bub3 mutant strain, at 50.0 µM, active compounds read high
About 79,000 compounds went through this panel and 15% of them were active in at least one assay; those are over-represented in the sample as a whole.
Assignment: determine reported growth inhibition for the given compounds.
Answers are plain numbers, in %.

Example cases with answers are listed next.
**Query** Give growth inhibition for CCCC(C)C(=O)OCCOCC (stereo unspecified)
**Result** 9.3

**Query** Give growth inhibition for CCOC(=O)C1CSC(c2ccccc2)=N1 (stereo unspecified)
**Result** -8.35

**Query** Give growth inhibition for Cc1ccc2c(c1)[n+]([O-])c1c3ccccc3[nH]c1[n+]2[O-]
**Result** 15.2

**Query** Give growth inhibition for CC1(C)CO/C(=C/C(=O)c2ccccc2)N1C(=O)c1ccccc1
**Result** 4

**Query** Give growth inhibition for CC1(C)CC(N(CCO)CCO)CC(C)(C)N1O
**Result** -7.2

**Query** Give growth inhibition for CCCCCCCI
**Result** 1.65

**Query** Give growth inhibition for CCOC(=O)Oc1ccc(C(CNC(C)C)OC(=O)OCC)cc1OC(=O)OCC (stereo unspecified)
**Result** 4.45

**Query** Give growth inhibition for CCCCCCCCCCCCCCCC(=O)OCC1OC(OC(=O)CCCCCCCCCCCCCCC)C(OC(=O)CCCCCCCCCCCCCCC)C(OC(=O)CCCCCCCCCCCCCCC)C1OC(=O)CCCCCCCCCCCCCCC (stereo unspecified)
**Result** -24.7

Could you tell me growth inhibition for each of these compounds? They are listed below.
1. OC1(c2cccc(Cl)c2)C2=NCCCN2c2ccccc21 (stereo unspecified)
2. Cc1cc2c(cc1C)NC1C(=O)C(c3ccccc3Cl)OC1=N2 (stereo unspecified)
3. O=[N+]([O-])c1ccc(N=Nc2c(O)c3ccccc3c3ccccc23)c([N+](=O)[O-])c1
4. O=C(CBr)c1ccc(S(=O)(=O)c2ccccc2)cc1
5. CC1CC(=O)Nc2nc(N)ncc21 (stereo unspecified)
6. O=C(N/N=C\c1cccc2c([N+](=O)[O-])cccc12)Nc1ccccc1
7. CC1(C)CC(=O)C(/C=N/C(=S)NCc2ccccc2)=C(O)C1
8. CCN(CC)CC(OC(C)=O)c1ccc2ccc3ccc(O)cc3c2c1 (stereo unspecified)

**Result**
1. -28.4
2. 0.55
3. 6.1
4. 72.2
5. 7.75
6. -16.6
7. -2.45
8. -3.25

Could you tell me growth inhibition for each of these compounds? They are listed below.
1. CC(=O)Nc1ccc(-c2nnc(SCC(=O)Nc3ccccc3)o2)cc1
2. Cc1ccsc1C(=O)c1ccccc1[N+](=O)[O-]
3. O=C(O)c1sccc1-c1cccc2ccccc12
4. COc1ccc(Cl)cc1NC(=O)CC(C)=O
5. COC(=O)C1c2ccoc2CC2C1C(O)C(O)C1C(C)(C)CCCC21C (stereo unspecified)
6. COc1ccc(NC(=S)N=Nc2c(O)[nH]c3ccccc23)cc1
7. C[C@@]12CCC(=O)C=C1CC[C@H]1C2CC[C@]2(C)C1CC[C@H]2C(=O)COC(=O)CCC(=O)O (stereo partly specified)

**Result**
1. -14.6
2. -7.35
3. -15.6
4. -3.2
5. 81.6
6. -41.4
7. 2.55

Could you tell me growth inhibition for each of these compounds? They are listed below.
1. COc1ccc(NC(=O)Oc2cccc(NC(C)=O)c2)c(OC)c1
2. O=S(=O)(Nc1ccn(-c2ccccc2)n1)c1ccc(NCc2c3ccccc3nc3cc(Cl)ccc23)cc1

**Result**
1. 12.4
2. -13.6

* * *

Assignment: determine reported growth inhibition for the given compounds.
- test summary: NCI Yeast Anticancer Drug Screen. Data for the mlh1 rad18 strain (AID 175)
- condition info: S. cerevisiae mlh1 rad18 strain growth inhibition; at 50.0 µM; active compounds read high
About 79,000 compounds went through this panel and 15% of them were active in at least one assay; those are over-represented in the sample as a whole.
One number for each entry, in %.

Example cases with answers are listed next.
**Query** Give growth inhibition for COc1ccc(OC)c(-c2nc3ccccc3c(=O)[nH]2)c1
**Result** 0

**Query** Give growth inhibition for C[C@@]12CCC[C@H]1[C@@H]1CCC3=CC(=O)CC[C@]3(C)[C@H]1CC2
**Result** 1.05

**Query** Give growth inhibition for COC(=O)C(Nc1ccc(OC)cc1)c1ccccc1 (configuration not stated)
**Result** -13.6

**Query** Give growth inhibition for O=C(O)c1sccc1-c1cccc2ccccc12
**Result** -11.8

**Query** Give growth inhibition for CCOC(=O)CNCc1ccc(Cl)c(Cl)c1
**Result** 21.9

**Query** Give growth inhibition for Cc1onc(-c2c(Cl)cccc2Cl)c1C(=O)SC1=NC(C)N2C(SC(=O)c3c(-c4c(Cl)cccc4Cl)noc3C)=NC(C)N12 (configuration not stated)
**Result** 16.6

**Query** Give growth inhibition for NC(=O)C(Cc1ccccc1Cl)c1ccccc1 (configuration not stated)
**Result** 12.7

**Query** Give growth inhibition for CCC(C)CCC(=O)OCC(=O)c1ccc(-c2ccccc2)cc1 (configuration not stated)
**Result** 5.75

Could you tell me growth inhibition for each of these compounds? They are listed below.
1. CC(=O)c1cccc(NC(=O)Nc2cccc(C)n2)c1
2. CC(=O)N=C1N(/C=C2\C(=O)Oc3ccccc3C2=O)C(=O)/C(=C/c2ccc(OC(C)=O)cc2)N1C
3. CC1(C)OC2OC(C(O)COC(=O)c3ccccc3)C(Cl)C2O1 (configuration not stated)

**Result**
[12.6, 0.75, 39.3]

Could you tell me growth inhibition for each of these compounds? They are listed below.
1. FC(F)(F)c1cccc(C=NC23CC4CC(CC(C4)C2)C3)c1
2. N#CC1=C(N2CCCC2)NC(=O)CC1=O
3. CCC(O)C(=O)O (configuration not stated)
4. CCOC(=N)CC(=O)Nc1ccccc1CC

**Result**
8.75
1.4
-27.4
20.9

Could you tell me growth inhibition for each of these compounds? They are listed below.
1. COC(=O)C(CC(=O)[C@H]1CC[C@H]2[C@@H]3CC[C@H]4C[C@@H](OC(C)=O)CC[C@]4(C)[C@H]3CC[C@]12C)OC(C)=O (some centres not stated)
2. NC1(N)ON(c2ccc(C=O)cc2)C(c2ccc([N+](=O)[O-])cc2)S1 (configuration not stated)
3. Cc1cc(=O)[nH]c(NN2C(Cl)C(=O)C2c2c(O)ccc3ccccc23)n1 (configuration not stated)
4. Cc1ccc(OP2(Oc3ccc(C)cc3)=NP(Oc3ccc(C)cc3)(Oc3ccc(C)cc3)=NP(Oc3ccc(C)cc3)(Oc3ccc(C)cc3)=N2)cc1
5. S=C(Nc1ccc(I)cc1)SCc1ccc2c(c1)OCO2
6. CCOC1(OCC)CCC2(CC1)c1ccccc1-c1ccccc12
7. CC(=O)OCC1OC(OC(C)=O)C(NC(=O)c2ccc(Br)cc2)C(OC(C)=O)C1OC(C)=O (configuration not stated)

**Result**
1: 44.2; 2: 16.7; 3: -32.8; 4: 0.4; 5: 23.8; 6: 14.8; 7: 31.8
